- Method Description: Metabolic stability in rat liver microsomes (RLM)
- Condition Parameters: RLM, 0.50 mg protein per mL
Labelling field: enter 1.0 if recorded t1/2 is less than 6 min. Enter 0.0 if it equals or exceeds that cut-off.

CCN(CC)C(=O)[C@@H]1C=C2c3cccc4[nH]cc(c34)C[C@H]2N(CC2CC2)C1	0.0
CC[C@@H](C)NC(=O)[C@H]1C=C2c3cccc4[nH]cc(c34)C[C@H]2N(C)C1	1.0
CCN(CC)C(=O)[C@@H]1C=C2c3cccc4[nH]cc(c34)C[C@H]2N(Cc2ccccc2O)C1	1.0
CCN(CC)C(=O)[C@@H]1C=C2c3cccc4[nH]cc(c34)C[C@H]2N(Cc2ccccc2OC)C1	1.0
C=CCN1C[C@H](C(=O)N[C@H](C)CC)C=C2c3cccc4[nH]cc(c34)C[C@H]21	0.0

Say whether its t1/2 is strictly beneath 6 min. Entry: `CCCN1C[C@H](C(=O)N(CC)CC)C=C2c3cccc4[nH]cc(c34)C[C@H]21`
0.0

In the record for CCC[C@@H](C)NC(=O)[C@H]1C=C2c3cccc4[nH]cc(c34)C[C@H]2N(C)C1 [Int17a] , is t1/2 less than 6 min?
1.0
